Test: Stability in human microsomes assessed as compound remaining at 45 mins
Format: ADME, Microsome
Conditions: read-out: Stability
ATTRIBUTE_MEASURED: remaining at 0.75 h (%)
Please reply with the bare figure in % and do not write the unit itself.

Recorded remaining at 0.75 h of `Cc1c([C@@H]2CN3CCN(C(=O)Cc4ccc(-n5cnnn5)cn4)C[C@H]3CO2)ccc(F)c1C#N` , please.
89

---

Test: Oral bioavailability in Sprague-Dawley rat at 1 mg/kg
Format: ADME, organism-based
Details: in vivo
ATTRIBUTE_MEASURED: bioavailability (%)
Please reply with the bare figure in % and do not write the unit itself.

Recorded bioavailability of `Cc1c([C@@H]2CN3CCN(C(=O)Cc4ccc(-n5cnnn5)nc4)C[C@@H]3CO2)ccc2c1COC2=O` , please.
100

Recorded bioavailability of `Cc1c([C@H]2CN3CCN(C(=O)Cc4ccc(-n5cnnn5)nc4)C[C@H]3CO2)ccc2c1COC2=O` , please.
46

Recorded bioavailability of `O=C1OCCc2cc([C@@H]3CN4CCN(C(=O)Cc5cnc(-n6cnnn6)nc5)C[C@H]4CO3)ccc21` , please.
12

Recorded bioavailability of `Cc1c([C@H]2CN3CCN(C(=O)Cc4ccc(-n5cnnn5)nc4)C[C@H]3CO2)ccc(F)c1C#N` , please.
69
